Hey, just so you know, these numbers are from PubChem BioAssay (NCI).

# Tested on: SF-539 CNS
# assay_explanation: NCI tumour cell line growth inhibition, 48 h

compound	TGI
COC(=O)[C@H](C[C@H](Cc1ccccc1)NC(=O)c1csc([C@@H](C[C@H](C(C)C)N(C)C(=O)[C@@H](NC(=O)[C@H]2CCCCN2C)C(C)C)OC(C)=O)n1)NC(=O)OCc1ccccc1	0.00367 µM
CSc1ccc(C2OC(=O)c3ccccc32)c2ccccc12 (stereo not drawn)	> 100 µM
CCN(CC)c1ccc(C(=O)c2ccccc2C(=O)O)c(O)c1	> 100 µM
O=c1c2nn3c(=O)n(-c4ccccc4)c(=O)c3nn2c(=O)n1-c1ccccc1	> 100 µM
O=C(CCCN1CCC2(CC1)OC(=O)N(c1ccccc1)C2=O)c1ccccc1	> 100 µM
CCC1NC(=O)C1NC(=O)OC (stereo not drawn)	> 100 µM
O=S(=O)(O)c1ccc2cccc(N=Nc3c(O)ccc4ccccc34)c2c1	> 100 µM
CCOC(=O)N/N=C(/OCC)c1ccccc1	> 100 µM
CCOC(=O)C1(C(=O)OCC)Nc2cccnc2N(C)N1	30.7 µM
Cc1cc(N(CCC#N)CCC#N)ccc1N=Nc1cccc(C(=O)O)c1	> 100 µM
Cc1nc2cccc(F)c2c(=O)n1C1CCCCNC1=O (stereo not drawn)	> 10 µM
N#CCc1nc2ccccc2c(=O)[nH]1	> 100 µM
O=c1/c(=C/c2ccccc2F)sc2nc3ccccc3n12	> 100 µM
COc1ccc(/C(C#N)=C/c2ccccc2OC)cc1	> 100 µM
C1C[OH+]CC[OH+]CCNCC[OH+]CC[OH+]CCN1.N.[Cl-].[Pt+4]	19.6 µM
CCC1C(C#N)=C(N)OC2=C1C(=O)CC(C)(C)C2 (stereo not drawn)	> 100 µM
CC#C[C@]1(O)CC[C@H]2[C@@H]3CCC4=CC(=O)CCC4=C3[C@@H](c3ccc4c(c3)OCO4)C[C@@]21C	274 µM
CN(C)CCNc1c2c(c(NCCN(C)C)c3[nH]ccc13)C(=O)c1ccccc1C2=O	3.8 µM
Cc1csc(=S)n1OC(=O)NC1CCCCC1	> 100 µM
[N-]=[N+]=Nc1c(C=O)c(=O)n2c3c(cccc13)CCC2	36.1 µM
CC(=O)Nc1cc([As](=O)(O)O)ccc1O	> 100 µM
O=C(NCCCCCCNC(=O)n1cc(F)c(=O)[nH]c1=O)NCCCOCCOCCOCCOCCOCCOCCOCCOCCOCCOCCOCCOCCOCCOCCOCCOCCOCCOCCOCCOCCOCCCNC(=O)C(O)C(O)C(O)C(O)CO (stereo not drawn)	43.7 µM
CCCNC1=C(C(=O)OCC)C(=O)CO1	> 100 µM

====

# Tested on: COLO 205 colon
# assay_explanation: NCI tumour cell line growth inhibition, 48 h; in the data active = GI50 below about 0.43 µM; inactive = the rest
Outcomes: active, inactive

compound	answer_label
COc1ccc(-c2ccc(/C=N/n3c(COc4ccc(Cl)cc4Cl)nn(CN4CCOCC4)c3=S)o2)c([N+](=O)[O-])c1	inactive
CCCC(C)c1cc(Cc2cc(Cl)cc(Cl)c2O)c(O)c(Cc2cc(Cl)cc(Cl)c2O)c1 (stereo not drawn)	inactive
NCCOCCOCCNc1nc(Cc2ccccc2)nc(NCCCN2CCCC2=O)n1	inactive
COC(C(=O)[O][Ge]([CH3])([CH3])[CH3])c1ccccc1 (stereo not drawn)	inactive
CCCCCCCCN=C(N)c1ccc(N2CCN(c3ccc(C(N)=NCCCCCCCC)cc3)CC2)cc1	inactive
COc1ccc(-c2c3c(N)nc(-c4ccncc4)nc3nc3c2c(C)nn3-c2ccccc2)cc1	inactive
COC(=O)[C@H](C[C@H](Cc1ccccc1)NC(=O)c1csc([C@@H](C[C@H](C(C)C)N(C)C(=O)[C@@H](NC(=O)[C@H]2CCCCN2C)C(C)C)OC(C)=O)n1)NC(=O)OCc1ccccc1	active
CC(C)c1cc(-c2n[nH]c(=O)n2-c2ccc3c(ccn3C)c2)c(O)cc1O	active

====

# System: UO-31 renal
# assay_explanation: NCI tumour cell line growth inhibition, 48 h; in the data active means GI50 below about 0.43 µM; inactive means the rest
Outcomes: active, inactive

smiles_str	answer_label
Cn1cccc1-c1cc(-c2cccs2)nc(N)c1C#N	inactive
CCc1nccc2c1nc(-c1nonc1N)n2CC	inactive
COc1ccc(-c2nc3sc4c(c3c(=O)[nH]2)CCCCCC4)cc1	inactive
COc1ccc(OC)c(/C=C2\SC(=S)NC2=O)c1	inactive
Nc1ccccc1C#C/C=C\C#Cc1cccs1	inactive
COc1cccc(-n2ncc3c(N/N=C/c4ccc(C(=O)NCCN(C)C)cc4)ncnc32)c1	inactive
O=C(O)/C=C\C(=O)N1C/C(=C\c2ccccc2Cl)C(=O)/C(=C/c2ccccc2Cl)C1	inactive
COc1ccc2c(c1)/C(=C\c1c(C)nc3sccn13)C(=O)N2	active
COc1ccc(/C(C#N)=C/c2ccccc2OC)cc1	inactive
COC(=O)[C@@]1(C)CC[C@]2(C)CC[C@]3(C)C4=CC=C5C(=CC(=O)C(O)=C5C)[C@]4(C)[C@@H](O)C[C@@]3(C)[C@@H]2C1	inactive

====

# Test system: SNB-75 CNS
# assay_explanation: NCI tumour cell line growth inhibition, 48 h
recorded_endpoint: TGI (µM)

compound	recorded_endpoint	comparative_sign	recorded_number
CCCC(C)c1cc(Cc2cc(Cl)cc(Cl)c2O)c(O)c(Cc2cc(Cl)cc(Cl)c2O)c1 (stereo not given)	TGI	=	7.7
COc1ccc2sc3c(NCCCN(C)C)nc4ccccc4c3c(=O)c2c1	TGI	=	2.8
COc1ccc(OC)c(/C=C2\SC(=S)NC2=O)c1	TGI	>	100
c1ccc([P+](Cc2ccc(C[P+](c3ccccc3)(c3ccccc3)c3ccccc3)cc2)(c2ccccc2)c2ccccc2)cc1	TGI	>	100
COc1ccc(/C=C2\CCCC3=C2N=C2SC(C)=NN2C3c2ccc(OC)c(OC)c2)cc1OC (stereo not given)	TGI	=	64.2

====

# System: SNB-19 CNS
# assay_explanation: NCI tumour cell line growth inhibition, 48 h; in the data active means GI50 below about 0.43 µM; inactive means the rest
Outcomes: True = active, False = inactive

compound	answer_label
COC(=O)[C@H](C[C@H](Cc1ccccc1)NC(=O)c1csc([C@@H](C[C@H](C(C)C)N(C)C(=O)[C@@H](NC(=O)[C@H]2CCCCN2C)C(C)C)OC(C)=O)n1)NC(=O)OCc1ccccc1	True
CCOC(=O)c1cc(NS(=O)(=O)c2ccccc2)cc(C(=O)OCC)c1	False
CC1SC(c2ccccc2)N(CCc2cccs2)C1=O (stereo unspecified)	False
N=C(N)c1ccc(-c2ccc(-c3cc(Cl)cc(Cl)c3)o2)nc1	False
C=CCC[CH2][Sn]([c]1ccccc1)([c]1ccccc1)[c]1ccccc1	False
COc1ccc(/C=C2\CCCC3=C2N=C2SC(C)=NN2C3c2ccc(OC)c(OC)c2)cc1OC (stereo unspecified)	False
CC(CCC(=O)O)[C@H]1CCC2[C@@H]3CC[C@@H]4CC(O)CC[C@]4(C)C3CC[C@@]21C (stereo partly specified)	False
COc1ccc(/C(=C2/O[C@@H]([C@H]3COC(C)(C)O3)[C@H]3OC(C)(C)O[C@@H]23)c2cc(OC)c(OC)c(OC)c2)cc1O	False
OC(c1cc(-c2ccccc2)nc2ccc(Cl)cc12)C1CCCCN1 (stereo unspecified)	False
CN1CCC(n2cnc(-c3ccc(F)cc3)c2-c2ccnc(NCCO)n2)CC1	False
NCCn1c(=O)[nH]c(=O)[nH]c1=S	False

====

# Tested on: SK-MEL-2 melanoma
# assay_explanation: NCI tumour cell line growth inhibition, 48 h
recorded_endpoint: TGI (µM)

compound	tested_target	recorded_endpoint	comparative_sign	recorded_number
COc1ccc2sc3c(NCCCN(C)C)nc4ccccc4c3c(=O)c2c1	SK-MEL-2 melanoma	TGI	=	3.32
COC(=O)C(CC12CC3CC(CC(C3)C1)C2)NC(=O)C(N)CC(=O)O (stereo not given)	SK-MEL-2 melanoma	TGI	>	100
CN(C)C(=O)OC(Cn1cncn1)c1ccc(Cl)cc1Cl (stereo not given)	SK-MEL-2 melanoma	TGI	>	100
O=[N+]([O-])c1ccc(-c2nnc(C34CC5CC(CC(C5)C3)C4)o2)cc1	SK-MEL-2 melanoma	TGI	>	100
C1C[OH+]CC[OH+]CCNCC[OH+]CC[OH+]CCN1.N.[Cl-].[Pt+4]	SK-MEL-2 melanoma	TGI	=	53
Nc1nc2c(c3ncncc13)C(c1cccc(C(F)(F)F)c1)Cc1ncncc1-2 (stereo not given)	SK-MEL-2 melanoma	TGI	=	29.7
C#CCOCn1cnc2c(Cl)ncnc21	SK-MEL-2 melanoma	TGI	>	100
CCCC(C)c1cc(Cc2cc(Cl)cc(Cl)c2O)c(O)c(Cc2cc(Cl)cc(Cl)c2O)c1 (stereo not given)	SK-MEL-2 melanoma	TGI	=	4.77
O=C(/C=C/c1csc(-c2ccccc2)n1)NCc1ccc(C(=O)NCCc2ccccc2)cc1	SK-MEL-2 melanoma	TGI	>	100
O=C(CCCN1CCC2(CC1)OC(=O)N(c1ccccc1)C2=O)c1ccccc1	SK-MEL-2 melanoma	TGI	>	100

====

# Tested on: MDA-N
# assay_explanation: NCI tumour cell line growth inhibition, 48 h
Where a SMILES comes first, the peptide text is derived from it. [ ]: non-standard residue; d: D form. The star is where a group is joined. X28 = COC1=CC(=O)N(C(=O)[C@@H](O*)C(C)C)[C@H]1Cc1ccccc1; NMeV = CN[C@H](C(=O)O)C(C)C; Hexanoyl = CCCCCC(=O)*
Documented TGI across a set of molecules

molecule	TGI
CS(=O)(=O)N1CC(CCl)c2ccc([N+](=O)[O-])cc21 (stereo not drawn)	> 100 µM
C[C@@H]1C[C@H]2CC[C@H](O2)[C@H](C)C(=O)O[C@@H](C)C[C@@H]2CC[C@@H](O2)[C@@H](C)C(=O)O[C@H](C)C[C@H]2CC[C@H](O2)[C@H](C)C(=O)O[C@@H](C)C[C@@H]2CC[C@@H](O2)[C@@H](C)C(=O)O1	> 100 µM
CCCCCC(=O)N[C@H](C(=O)N[C@H](C(=O)N(C)[C@H](C(=O)N1CCC[C@H]1C(=O)N1CCC[C@H]1C(=O)O[C@H](C(=O)N1C(=O)C=C(OC)[C@@H]1Cc1ccccc1)C(C)C)C(C)C)C(C)C)C(C)C (Hexanoyl-VV[NMeV]PP-X28)	> 100 µM
CCCC(=O)OC1C(C(O)CO)OC2OC(C)(C)OC21 (stereo not drawn)	> 100 µM
CC(C)(Br)C(Br)CCC(C)(Br)C(Br)CO (stereo not drawn)	> 10 µM
Cn1c(=S)[nH]c2sc3c(c2c1=O)CCSC3	> 100 µM
CC(=O)NC(CS/N=N/c1nc[nH]c1C(N)=O)C(=O)O (stereo not drawn)	> 100 µM
COc1cc(C=C2C(C)=NN(c3cccc(Cl)c3)C23SCC(=O)N3c2nc3ccccc3s2)ccc1O (stereo not drawn)	> 100 µM
COc1ccc2nc(N/N=C/C(C)=N/Nc3cc(C)c4cc(OC)ccc4n3)cc(C)c2c1	55.5 µM
[N-]=[N+]=Nc1c(C=O)c(=O)n2c3c(cccc13)CCC2	15.3 µM
CC(=O)N1C(Nc2ccccn2)CCN1c1ccccc1 (stereo not drawn)	> 10 µM
CCOC(=O)N/N=C(/OCC)c1ccccc1	> 100 µM
C=CCOc1ccc(/C(N=Nc2ccc(Cl)cc2)=N/NC(=O)c2ccccc2)cc1OC	> 100 µM
O=Nc1c(O)cc(Nc2ccc(Br)cc2)c2ccccc12	3.41 µM
O=C1C(Cl)=C(OCCCCl)C(=O)c2c(O)ccc(O)c21	2.98 µM
COc1ccc(/C=C2\C(=O)N(C3OC(COC(C)=O)C(OC(C)=O)C(OC(C)=O)C3OC(C)=O)c3ccccc3N=C2N)cc1 (stereo not drawn)	26 µM
CC1OC(O[C@@H]2OC=C(C=O)[C@@]3(O)CC[C@H](C)[C@@H]23)C(O)C(O)C1O (stereo partly drawn)	> 100 µM
O=C(Cc1ccccc1)NNc1nc(NNC(=O)c2ccncc2)nc(Nc2ccc([N+](=O)[O-])cc2)n1	> 10 µM
